- Test protocol: small-molecule microarray binders of probe aCHRDL2, primary screen, biochemical, biotinylated probe, 635/667 nm fluorescence (AID 1100)
- Assay conditions: higher = more signal
Known composite z-score of a selection of molecules
Reported endpoint: composite z-score

> print(dat)
                         compound.structure  observed.measurement
1  CC(C)[C@H](NC(=O)OC(C)(C)C)[C@@H](O)CC(=O)C(C)(C)C                -0.428
2      COC(=O)CC=C1c2ccccc2[C@H](OC)[C@H]1C                -0.624
3  O=C1[C@H]2[C@H]3[C@H](O)[C@H](O)CC(=NOC[C@@H](O)COCc4ccco4)[C@@H]3CC[C@H]2C(=O)N1Cc1ccc2c(c1)OCO2                 -1.42
4  COC(=O)[C@@H]1CC[C@H](C)[C@@H](c2ccc(Br)cc2)N1C[C@H](O)CN=[N+]=[N-]                0.0248
5  CC(C)CN1CCc2nc(-c3ccccc3)c3c(c2C1)CO[C@@H](C)C3                -0.291
6        CON=C[C@@H](OC)[C@H](C)C=CCC(=O)OC                -0.165
7  CCOC(=O)CCN1C(=O)[C@H]2[C@@H]3C(=CC[C@H]2C1=O)C(=O)[C@H]1O[C@H]1[C@H]3O                -0.291
8  CCN1C(=O)[C@H]2[C@H]3[C@H](O)[C@H](O)CC(=NOC[C@@H](O)[C@H]4O[C@@H]5OC(C)(C)O[C@@H]5[C@H]4O)[C@@H]3CC[C@H]2C1=O                -0.461
